system: M14 melanoma; assay: NCI tumour cell line growth inhibition, 48 h
Experimental Readout: TGI

Molecule | Endpoint Value
OC(CCNC12CC3CC(CC(C3)C1)C2)c1ccccc1 (stereo unspecified) | > 100 µM
O=C1NNC2(C(=O)N1)c1ccccc1-c1ccccc12 | > 10 µM
O=C1C(Nc2ccc(Cl)cc2)=C(I)C(=O)c2ncccc21 | 2.26 µM
Cc1c(C(=O)Nc2ccccc2)sc2ncn(Cc3cccc(Cl)c3)c(=O)c12 | > 100 µM
C[n+]1cccc2c(=O)c3ccccc3oc21 | > 100 µM
CCOC(C[C@H](O[Si](C)(C)C(C)(C)C)[C@H]1COC(=S)S1)OCC | > 100 µM
